TARGET_DESC: feline FcRn complex (FcRn-α subunit and β-microglobulin), biotin labeled (feline)
ASSAY_NOTES: SPR, pH 6
RECORDED_ENDPOINT: pKd
Just so you know, pKd here is -log10 of the concentration in molar units; reply with that number alone.

Briefly, pKd measured for feline IgG1a D312P (antibody, part only; not given: Variable domains, not shown: another chain or arm of the molecule) constant: ASTTAPSVFPLAPSCGTTSGATVALACLVLGYFPEPVTVSWNSGALTSGVHTFPAVLQASGLYSLSSMVTVPSSRWLSDTFTCNVAHPPSNTKVDKTVRKTDHPPGPKPCDCPKCPPPEMLGGPSIFIFPPKPKDTLSISRTPEVTCLVVDLGPDDSDVQITWFVDNTQVYTAKTSPREEQFNSTYRVVSVLPILHQPWLKGKEFKCKVNSKSLPSPIERTISKAKGQPHEPQVYVLPPAQEELSRNKVSVTCLIKSFHPPDIAVEWEITGQPEPENNYRTTPPQLDSDGTYFVYSKLSVDRSHWQRGNTYTCSVSHEALHSHHTQKSLTQSPGK : 8.40

Origin of values: patent US20240400708A1
